Target: MAP kinase-activated protein kinase 3 (Homo sapiens)
Conditions: at 0.1 µM
Description: GSK_PKIS: MAPKAPK3 mean inhibition at 0.1 uM [Nanosyn]
// inhibition lookup, one value per entry
Give a bare numeral; the unit % is implied.

## Task Request the reported inhibition associated with CS(=O)(=O)Nc1ccc(-c2cc(-c3ccccc3)cc(C(N)=O)c2N)cc1
## Result 0.37

Next:
## Task # inhibition lookup, item COC(=O)Nc1nc2cc(Oc3ccc(NC(=O)Nc4ccccc4)cc3)ccc2[nH]1
## Result 1.74

## Task Need inhibition, item O=C(O[C@H]1CN[C@H](C#Cc2cc3ncnc(Nc4ccc(OCc5cccc(F)c5)c(Cl)c4)c3s2)C1)N1CCOCC1
## Result -0.64

## Task I am curious: what inhibition value has been reported for FC(F)(F)CNc1nccc(-c2cnn3ncccc23)n1 ?
## Result 3.47

## Task Sample CC1(C)CC(n2cnc(-c3ccc(F)cc3)c2-c2ccnc(N)n2)CC(C)(C)N1 — what was its inhibition?
## Result 21.4

====

Parameter: inhibition. Scope: all listed entries.
Target: Cyclin-dependent kinase 1 (Homo sapiens) (UniProt P06493);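 note: enzyme assay on the CDK1/cyclin B complex, reported as mean percent inhibition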
Sequence (P06493 whole entry, looked up): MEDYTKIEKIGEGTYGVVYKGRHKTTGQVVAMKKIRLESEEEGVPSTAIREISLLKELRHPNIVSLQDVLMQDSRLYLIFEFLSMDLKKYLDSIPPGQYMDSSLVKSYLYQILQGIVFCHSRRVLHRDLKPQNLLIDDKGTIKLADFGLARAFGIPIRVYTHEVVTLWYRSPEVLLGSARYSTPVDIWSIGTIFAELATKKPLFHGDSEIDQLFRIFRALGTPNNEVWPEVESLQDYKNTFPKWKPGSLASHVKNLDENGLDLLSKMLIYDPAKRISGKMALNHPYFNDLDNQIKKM
Details: at 0.1 µM
API: value field is a number in %; no unit string.

The examples below pair each entry with its known result.
## Task Which inhibition is reported for this molecule? COc1cc(N2CCN(C(C)C)CC2)ccc1Nc1nc(Nc2cccc(F)c2C(=O)O)c2cc[nH]c2n1
## Result 1.3

## Task Returns the measured inhibition for the input molecule. Input: CCCNc1cccc(-n2ncc3c(N/N=C/c4ccncc4)ncnc32)c1
## Result 2.68

## Task Give the measured inhibition of O=C(Nc1n[nH]c2nnc(-c3cccnc3)cc12)C1CC1 .
## Result 33.3

## Task Name the recorded inhibition for Cc1ccc(-c2cc3c(NC(=O)C4CC4)ncnc3o2)cc1 .
## Result 0.77

From here, focus on the item given below.
## Task Query: inhibition; subject: CC1=C(C(=O)Nc2ccc3[nH]nc(C)c3c2)C(c2ccc(C(F)(F)F)cc2)CC(=O)N1 (stereo not given)
## Result 1.96

====

Biological target: Serine/threonine-protein kinase Chk1 (Homo sapiens) (UniProt O14757)
Sequence (O14757 whole entry): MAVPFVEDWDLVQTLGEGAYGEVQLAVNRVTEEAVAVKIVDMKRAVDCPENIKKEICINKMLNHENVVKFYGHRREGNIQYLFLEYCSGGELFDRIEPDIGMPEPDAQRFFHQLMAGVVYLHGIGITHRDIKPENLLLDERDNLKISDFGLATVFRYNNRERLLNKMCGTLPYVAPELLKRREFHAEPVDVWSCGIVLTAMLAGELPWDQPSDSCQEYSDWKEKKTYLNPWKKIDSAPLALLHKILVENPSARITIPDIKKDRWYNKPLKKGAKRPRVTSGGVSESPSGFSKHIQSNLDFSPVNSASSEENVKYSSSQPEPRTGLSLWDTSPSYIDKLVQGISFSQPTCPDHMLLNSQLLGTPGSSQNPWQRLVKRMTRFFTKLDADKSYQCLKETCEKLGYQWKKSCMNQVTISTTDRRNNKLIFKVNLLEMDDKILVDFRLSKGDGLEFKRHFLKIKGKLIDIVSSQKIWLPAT
Settings: at 0.1 µM
reportedMetric: inhibition (%)
Reply with just the number (in %).

Example molecules with recorded inhibition:
## Task Which measured inhibition belongs to COc1cc(Nc2ncc(-c3ccccc3)o2)cc(OC)c1 , tested on Serine/threonine-protein kinase Chk1 (Homo sapiens) (UniProt O14757)?
## Result 1.69

## Task Give recorded inhibition with Serine/threonine-protein kinase Chk1 (Homo sapiens) (UniProt O14757) for the following molecule: c1ccc(-c2n[nH]cc2-c2ccnc(-c3ccc(OCCn4ccnc4)cc3)c2)nc1
## Result -5.5

## Task Provide the documented inhibition with Serine/threonine-protein kinase Chk1 (Homo sapiens) (UniProt O14757) as the system for CCCNc1cccc(-n2ncc3c(N/N=C/c4ccncc4)ncnc32)c1
## Result -4.03

---
## Task Given the entry O=C(Nc1n[nH]c2nnc(-c3cccnc3)cc12)C1CC1 , what inhibition was observed with Serine/threonine-protein kinase Chk1 (Homo sapiens) (UniProt O14757)?
## Result 0.7

## Task Look up inhibition with Serine/threonine-protein kinase Chk1 (Homo sapiens) (UniProt O14757) for this molecule: c1cnn2ncc(-c3ccnc(NCCCN4CCOCC4)n3)c2c1
## Result 0.25

## Task Could you share what inhibition was measured for Cc1cc(O)cc(C)c1/C=C/c1cncc(C(=O)OC(C)(C)C)c1 , tested on Serine/threonine-protein kinase Chk1 (Homo sapiens) (UniProt O14757)?;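 note: reported figure is the mean percent inhibition of CHEK1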
## Result 2.4

====

Molecular target: Mitogen-activated protein kinase 12 (Homo sapiens) (UniProt P53778)
Sequence (P53778 whole entry): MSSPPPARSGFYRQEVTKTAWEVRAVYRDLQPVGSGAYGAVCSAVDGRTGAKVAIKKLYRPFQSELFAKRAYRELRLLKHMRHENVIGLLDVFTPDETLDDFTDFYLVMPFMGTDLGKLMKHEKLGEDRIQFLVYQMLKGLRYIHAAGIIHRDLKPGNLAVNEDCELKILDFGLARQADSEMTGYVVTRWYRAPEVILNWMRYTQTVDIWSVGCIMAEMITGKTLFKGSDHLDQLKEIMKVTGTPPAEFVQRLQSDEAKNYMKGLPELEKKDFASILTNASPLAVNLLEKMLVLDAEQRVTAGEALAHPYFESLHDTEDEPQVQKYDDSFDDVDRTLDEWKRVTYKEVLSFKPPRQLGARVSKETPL
Settings: at 0.1 µM
Description: GSK_PKIS: P38gamma mean inhibition at 0.1 uM [Nanosyn]
A collection of compounds and their measured inhibition
Quick reminder: number only, in %, skip the unit.

Previously resolved entries follow.
## Task Which inhibition is listed for N#Cc1ccc2c(-c3ccnc(NC4CC4)n3)c(-c3ccc(F)cc3)nn2c1 ?
## Result 1

## Task Using the record for CCS(=O)(=O)c1ccc(OC)c(Nc2ncc(-c3cccc(F)c3)o2)c1 , report its inhibition.
## Result 3.31

## Task Item under review: Cc1ccc(-c2cc3c(NC(=O)C4CC4)ncnc3o2)cc1 . Reported inhibition?
## Result 1.34

## Task Fill blank: measured inhibition of the compound CS(=O)(=O)Nc1ccc(-c2cc(-c3ccccc3)cc(C(N)=O)c2N)cc1 is ____.
## Result 0.99

## Task For the compound shown here, CS(=O)(=O)CCNCc1ccc(-c2ccc3ncnc(Nc4ccc(OCc5ccccc5)cc4)c3c2)o1 , give the reported inhibition.
## Result 2.39

## Task I am curious: what inhibition value has been reported for O=C(O[C@H]1CN[C@H](C#Cc2cc3ncnc(Nc4ccc5c(ccn5Cc5cc(F)ccc5F)c4)c3s2)C1)N1CCOCC1 ?
## Result 3.21

## Task // returns reported inhibition for input COC(=O)Nc1nc2ccc(Oc3ccc(NC(=O)Nc4cc(C(F)(F)F)ccc4F)cc3)cc2s1
## Result 0.98

## Task Give the measured inhibition of COc1ccccc1-c1cc(/C=C2\C(=O)Nc3ncc(Br)cc32)cc(Br)c1O .
## Result 2.49

***
## Task What inhibition value was documented for this compound, COc1cccc(-n2ncc3c(N/N=C/c4ccc(C(=O)NCCN(C)C)cc4)ncnc32)c1 ?
## Result 4.06

## Task Any idea what inhibition was measured for CN(C)CCNC(=O)Nc1ccc(N(C)c2ccnc(Nc3ccc(CS(C)(=O)=O)cc3)n2)cc1 ?
## Result -0.76

## Task What measured inhibition goes with COc1cc2c(cc1Nc1nc(Nc3cccc(F)c3C(N)=O)c3cc[nH]c3n1)N(C(=O)CN1CCN(C(C)C)CC1)CC2 ?
## Result 1.49

## Task // query inhibition value for entry Cc1c2ccc(N(C)c3ccnc(Nc4cccc(S(N)(=O)=O)c4)n3)cc2nn1C
## Result 5.17

## Task # lookup: inhibition of NS(=O)(=O)c1ccc(N/N=C2\C(=O)Nc3cccc(CCc4ccncc4)c32)cc1
## Result 0.4

## Task Field request: inhibition | item: COc1cc(N2CCN(C(C)C)CC2)ccc1Nc1nc(Nc2cccc(F)c2C(=O)O)c2cc[nH]c2n1
## Result 0.95

## Task May I ask what inhibition has been recorded for COc1ccc(-c2nn3ncccc3c2-c2ccnc(Nc3ccc(F)c(F)c3)n2)cc1 ?
## Result 4.66

## Task # inhibition lookup, item OCCCNc1nccc(-c2c(-c3ccc(F)cc3)nn3cc(C(F)(F)F)ccc23)n1
## Result 3.46

## Task Consider the compound shown here: COc1ccc2ncn(-c3cc(O[C@H](C)c4ccccc4C(F)(F)F)c(C(N)=O)s3)c2c1 What is its recorded inhibition?
## Result 0.21

## Task What inhibition value was documented for this compound, O=C1Nc2ccccc2/C1=C1\CCc2cc(O)ccc21 ?
## Result 4.33

## Task # input compound: COc1c(C(N)=O)cc(-c2ccc(Cl)cc2)cc1-c1ccc(S(N)(=O)=O)cc1 ; wanted: its inhibition
## Result 4.27

## Task What value of inhibition has been reported for the following compound? COC(=O)Nc1nc2cc(Oc3ccc(NC(=O)Nc4ccccc4)cc3)ccc2[nH]1
## Result 3.43

## Task Which inhibition reading was recorded for the compound CN(c1ccc(NC(=O)NCCN2CCOCC2)cc1)c1ccnc(Nc2ccc(CS(C)(=O)=O)cc2)n1 ?
## Result 0.47

## Task Entry under review: CNC(=O)c1cncc(/C=C/c2ccccc2C)c1 . Reported inhibition?
## Result 1.29

## Task Consider the compound Fc1ccc(Nc2nccc(-c3c(-c4ccc(C(F)(F)F)cc4)nn4ncccc34)n2)cc1F and give its measured inhibition.
## Result 5.22

## Task Endpoint output: inhibition of FC(F)(F)CNc1nccc(-c2cnn3ncccc23)n1 . Value?
## Result 1.83

## Task May I ask what inhibition has been recorded for COc1cc(Nc2ncc(-c3ccccc3)o2)cc(OC)c1 ?
## Result 3.61

====

Entries and their inhibition values follow.
Target: Muscle, skeletal receptor tyrosine-protein kinase (Homo sapiens);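 note: reported value is the mean percent inhibition of MuSK kinase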
Settings: at 1 µM
Quick note: give the figure in %, leave out the unit.

Some compounds with recorded inhibition:
## Task // inhibition lookup, key: Cc1ccc(-c2cc3c(NC(=O)C4CC4)ncnc3o2)cc1
## Result 7.78

## Task I would be grateful if you could share the reported inhibition for O=C(O[C@H]1CN[C@H](C#Cc2cc3ncnc(Nc4ccc5c(cnn5Cc5ccccc5)c4)c3s2)C1)N1CCOCC1 .
## Result -0.19

## Task Consider the compound COc1cc2c(cc1Nc1nc(Nc3cccc(F)c3C(N)=O)c3cc[nH]c3n1)N(C(=O)CN1CCN(C(C)C)CC1)CC2 and give its measured inhibition.
## Result 8.69

## Task I'd like to know its inhibition. The compound in question is Fc1cccc(COc2ccc(Nc3ncncc3C#Cc3ccccc3)cc2Cl)c1
## Result 3.28

## Task Quick one: inhibition of CS(=O)(=O)CCNCc1ccc(-c2ccc3ncnc(Nc4ccc(OCc5cccc(C(F)(F)F)c5)cc4)c3c2)o1 ?
## Result 9.15

## Task Recorded inhibition for Cc1cc(O)cc(C)c1/C=C/c1cncc(C(=O)OC(C)(C)C)c1 , please?
## Result 3.99

// moving on: another record for inhibition
## Task Fill blank: measured inhibition of the compound c1cnn2ncc(-c3ccnc(NCCCN4CCOCC4)n3)c2c1 is ____.
## Result 0.6
